Tested on: CCRIS mutagenicity, Ames/micronucleus/aberration tests
Experiment: CCRIS mutagenicity studies
Conditions: Test System: CHINESE HAMSTER V-79; Strain/Indicator: V-79/8-AZAGUANINE; Metabolic Activation: NONE
The source made the active and inactive calls. The rule behind the calls is not given here.
The reply should be one of these categories: TRUE (active), FALSE (inactive)

Solved cases below.
O[C@H]1[C@@H]2O[C@@H]2c2c(ccc3cc4c(ccc5ccccc54)nc23)[C@@H]1O :: TRUE
O=c1[nH]cc(/C=C/Br)c(=O)[nH]1 :: FALSE
O[C@H]1[C@H]2O[C@H]2c2c(ccc3cc4c(ccc5ccccc54)nc23)[C@@H]1O :: TRUE

Req: Which result was noted for this compound in the test: OO
Resp: TRUE

Req: Test call, this compound: CC(C)CCC[C@@H](C)[C@H]1CC[C@H]2[C@@H]3C[C@@H](O)[C@@]4(O)C[C@@H](O)CC[C@]4(C)[C@H]3CC[C@]12C
Resp: TRUE

###

Tested on: CCRIS mutagenicity, Ames/micronucleus/aberration tests
Experiment: CCRIS mutagenicity studies
Conditions: Test System: AMES SALMONELLA TYPHIMURIUM; Strain/Indicator: TA98; Metabolic Activation: NONE; Method: STANDARD PLATE
Calls of active or inactive are those of the source. No rule for the calls is given here.
measurement.label: mutagenic call

O=[N+]([O-])c1cc2cccc([N+](=O)[O-])c2c2ccccc12 :: active; positive
c1ccc2sncc2c1 :: inactive; negative
O=Nc1ccc2ccc3c4c(cc5ccc1c2c53)CCCC4 :: active; positive
C[C@H]1CCCC(=O)CCCCCc2cc(O)cc(O)c2C(=O)O1 :: inactive; negative
N=C1CCC(=N)c2c1c(O)c1ccccc1c2O :: inactive; negative

Measured mutagenic call of Clc1nnc(Cl)c2ccccc12 : inactive; negative

The molecule CC1=CC(=O)CC(C)(C)C1 showed mutagenic call equal to inactive; negative

Form: molecule = CN(CC(=O)NN)c1ccc2ccccc2c1 ; mutagenic call = inactive; negative

mutagenic call in this record for O=C(O)c1ccccn1 : inactive; negative

According to the records, this molecule CNC[C@H](O)[C@@H](O)[C@H](O)[C@H](O)CO.CNC[C@H](O)[C@@H](O)[C@H](O)[C@H](O)CO.O=C([O-])CN(CCN(CC(=O)[O-])CC(=O)[O-])CCN(CC(=O)[O-])[C@H](COCc1ccccc1)C(=O)[O-].[Gd+3].[H+].[H+] displays mutagenic call of inactive; negative

For reference, reported mutagenic call for C#C[C@]1(OC(C)=O)CC[C@H]2[C@@H]3CCC4=CC(=O)CC[C@@H]4[C@H]3CC[C@@]21C stands at inactive; negative

Note to self: mutagenic call recorded for O=C1c2cccc3ccc4ccc5cccc1c5c4c23 was inactive; negative

Cc1c(N)cc([N+](=O)[O-])c(N)c1C has a reported mutagenic call of active; positive

For this molecule ( O=S1(=O)OC(c2cc(Br)c(O)c(Br)c2)(c2cc(Br)c(O)c(Br)c2)c2ccccc21 ), measured mutagenic call is inactive; negative

The reported value for c1ccc2c(c1)c1ccccc1c1cc3cnccc3cc21 in terms of mutagenic call is inactive; negative

Lab book: mutagenic call of Cc1c(C)c(N)c(C)c(C)c1N noted as inactive; negative

Summary for this molecule, CNP1(NC)=NP(NC)(NC)=NP(NC)(NC)=N1 : mutagenic call is inactive; negative

Form: molecule = O=C1c2cc(S(=O)(=O)O)ccc2C(=O)c2c1cccc2[N+](=O)[O-] ; mutagenic call = active; positive

Just so you know, measured mutagenic call for O=c1[nH]c2ccccc2o1 came out at inactive; negative

Sure, the documented mutagenic call for CCN(C(=S)[S-])c1ccccc1.CCN(C(=S)[S-])c1ccccc1.[Zn+2] is inactive; negative

Sure, the documented mutagenic call for O=C1Cc2cc3cc([N+](=O)[O-])ccc3cc2[C@H](O)[C@H]1O is inactive; negative

Reported mutagenic call of c1cc2ccc3ccc4ccc5cccc6c(c1)c2c3c4c56 : inactive; negative

Short answer for CCOC(=O)C[n+]1csc2ccccc21 : mutagenic call was inactive; negative

Sample Cc1cc(=O)c2c(O)c3c(O)cc(O)c4c5c(O)cc(O)c6c(O)c7c(=O)cc(C)c8c1c2c(c34)c(c65)c78 ; mutagenic call observed: inactive; negative

Query CC1(C2CO2)CO1 (stereo not given) yields mutagenic call of active; positive

###

System: CCRIS mutagenicity, Ames/micronucleus/aberration tests
Assay: CCRIS mutagenicity studies
Details: Test System: AMES SALMONELLA TYPHIMURIUM; Strain/Indicator: TA1537; Metabolic Activation: NONE; Method: SPIRAL ASSAY
The source made the active and inactive calls. The rule behind the calls is not given here.
Result category, one only: YES (active), NO (inactive)

Reference set, count: 3
O=[N+]([O-])c1ccc2c(c1)Cc1ccccc1-2 :: YES
CC(=O)Nc1ccc2c(c1)Cc1ccccc1-2 :: NO
CC1=CC(=O)c2ccccc2C1=O :: NO

Now, please, on to the next compound.
Req: Fill in: this test's call for Cc1c2ccccc2c(C)c2c1ccc1ccccc12 is ___
Resp: YES

###

Test system: CCRIS mutagenicity, Ames/micronucleus/aberration tests
Test: CCRIS mutagenicity studies
Details: Test System: AMES SALMONELLA TYPHIMURIUM; Strain/Indicator: TA100; Metabolic Activation: MOUSE, LIVER, S-9; Method: PREINCUBATION
Calls of active or inactive are those of the source. How the calls were made is not given here.
Hi! Could you answer with just one of these? YES = active, NO = inactive

Consider the following illustrative entries.
CN(CC(O)CO)N=O (stereo not given) :: YES
N#CN=C(N)N :: NO
CC(=O)OC(C)CN(CC(C)OC(C)=O)N=O (stereo not given) :: YES
CC(=O)CN(CC(C)O)N=O (stereo not given) :: YES

Req: How did this test come out for CC(O)CN(CC(O)CO)N=O (stereo not given) ?
Resp: NO

###

Tested on: CCRIS mutagenicity, Ames/micronucleus/aberration tests
Assay: CCRIS mutagenicity studies
Conditions: Test System: AMES SALMONELLA TYPHIMURIUM; Strain/Indicator: TA98; Metabolic Activation: RAT, LIVER, S-9, AROCLOR 1254; Method: STANDARD PLATE
The source made the active and inactive calls. The rule behind the calls is not given here.
Response enum: class 1 for active, class 0 for inactive

Reference set, count: 2
CC(=O)Nc1ccc(Sc2ccccc2)cc1 :: class 1
c1ccc2c(c1)OCCOCCOCCOCCO2 :: class 0

Req: Would you mind telling me which call this test gave COCCOCCOP1(OCCOCCOC)=NP(OCCOCCOC)(OCCOCCOC)=NP(OCCOCCOC)(OCCOCCOC)=N1 ?
Resp: class 0

Req: Lab log entry: CCOC(=O)C(C)=O — outcome as called in the assay?
Resp: class 0

Req: For c1cc2ccc3ccc4ccc5cccc6c(c1)c2c3c4c56 , what call appears in the results of this test?
Resp: class 1

Req: Query: recorded result category for CC1(C)C(C=C(Cl)Cl)C1C(=O)OCc1cccc(Oc2ccccc2)c1 (centres undefined) in this test
Resp: class 0

Req: GET /call?item= O=C(O)/C=C/c1ccccc1 returns the recorded outcome of this test.
Resp: class 0

###

Test system: CCRIS mutagenicity, Ames/micronucleus/aberration tests
Assay: CCRIS mutagenicity studies
Conditions: Test System: E. COLI; Strain/Indicator: WP2 UVRA; Metabolic Activation: NONE; Method: STANDARD PLATE
From the text: The CCRIS database contains chemical records with carcinogenicity, mutagenicity, tumor promotion, and tumor inhibition test results. It was developed by the National Cancer Institute (NCI). Data are derived from studies cited in primary journals, current awareness tools, NCI reports, and other sources. Test results have been reviewed by experts in carcinogenesis and mutagenesis. CCRIS provides historical information from the years 1985 - 2011. It is no longer updated. […]
Calls of active or inactive are those of the source. How the calls were made is not given here.
Pick one: class 1 (active), class 0 (inactive)

Look over these answered cases.
COc1cc(-c2ccc(N=C=O)c(OC)c2)ccc1N=C=O :: class 0
O=[N+]([O-])c1ccc(Oc2ccc(Cl)cc2Cl)cc1 :: class 0
CC(=O)N(O)c1ccc2c(c1)Cc1ccccc1-2 :: class 0

Req: Recorded call for CCCCN(N=O)C(N)=O ?
Resp: class 1

Req: Which outcome did this test record for the compound CC(=O)Nc1ccc2c(c1)Cc1ccccc1-2 ?
Resp: class 0

Req: Fill in: this test's call for O=C(O)CC[N+](=O)[O-] is ___
Resp: class 0

Req: Assay result, entry CCN1CCN(C(=O)N[C@@H](C(=O)N[C@@H]2C(=O)N3[C@@H]2SC(C)(C)[C@@H]3C(=O)O)c2ccccc2)C(=O)C1=O — outcome?
Resp: class 0

Req: Called result for Cc1nnc2n1-c1ccc(Cl)cc1C(c1ccccc1Cl)=NC2
Resp: class 0

###

Test system: CCRIS mutagenicity, Ames/micronucleus/aberration tests
Assay: CCRIS mutagenicity studies
Settings: Test System: AMES SALMONELLA TYPHIMURIUM; Strain/Indicator: TA100; Metabolic Activation: RAT, LIVER, S-9, KANECHLOR 500; Method: PREINCUBATION
Active and inactive are the calls of the source. The rule behind the calls is not given here.
Respond only with the outcome that fits, drawn from active, inactive

Study these solved cases before continuing.
Cc1ccc(N)c([N+](=O)[O-])c1 :: inactive
O=[N+]([O-])c1ccc(F)c([N+](=O)[O-])c1 :: active
O=[N+]([O-])c1ccc(Cl)cc1Cl :: active
Cc1c(O)cc([N+](=O)[O-])cc1[N+](=O)[O-] :: inactive
O=[N+]([O-])c1ccc(Cl)c([N+](=O)[O-])c1 :: inactive

Then this molecule:
Req: # lookup: test call for CC[N+](=O)[O-]
Resp: inactive
